Quick reference for log10 of IC50 among some compounds
biological target: JAK1 (Homo sapiens (Human)); assay: JAK Caliper Enzyme Assay at 1 mM ATP, JAK1; type: biochemical
Sequence (P23458 875-1153): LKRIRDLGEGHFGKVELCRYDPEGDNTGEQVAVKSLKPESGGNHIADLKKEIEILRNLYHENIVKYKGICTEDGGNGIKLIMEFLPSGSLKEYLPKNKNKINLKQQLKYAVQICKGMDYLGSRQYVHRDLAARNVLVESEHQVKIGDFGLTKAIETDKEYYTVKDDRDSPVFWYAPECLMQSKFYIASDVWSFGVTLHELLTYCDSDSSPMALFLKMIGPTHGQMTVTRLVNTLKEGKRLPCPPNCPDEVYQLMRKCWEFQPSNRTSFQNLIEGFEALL
In our notation, the value equals log10 of IC50 in µM.

Here is how some compounds turned out for log10 of IC50.
CS(=O)(=O)N1CC(CC#N)(n2ccc(-c3nc(-c4cn[nH]c4)cc4ncccc34)n2)C1 [Example 75] | -0.17
CS(=O)(=O)N1CC(CC#N)(n2ccc(-c3cc(-c4cc[nH]n4)cc4ncccc34)n2)C1 [Example 283] | 0.75

Enquiry: Fill in: log10 of IC50 of N#CC[C@]1(n2ccc(-c3nc(-c4ccc(N)cn4)cc4ncccc34)n2)C[C@@H](C#N)C1 [Example 190] is ___
Return: 0.12

Enquiry: Same question for N#CC[C@]1(n2ccc(-c3nc(-c4c[nH]nc4N)cc4ncccc34)n2)C[C@H](C#N)C1 [Example 98] please.
Return: -1.14

Enquiry: And for Cn1cnc2cc(-c3cc4ncccc4c(-c4ccn(C5(CC#N)CN(S(C)(=O)=O)C5)n4)n3)cnc21 [Example 164] ?
Return: 0.82

Enquiry: Now consider N#CCC1(n2ccc(-c3nc(-c4ncc[nH]4)cc4ncccc34)n2)CN(CC(F)(F)F)C1 [Example 148] .
Return: 0.94

Enquiry: Would you kindly repeat that for Cc1ccc(-c2cc3ncccc3c(-c3ccn(C4(CC#N)CN(CC(F)(F)F)C4)n3)n2)cn1 [Example 177] ?
Return: 0.42

Enquiry: Ok, now N#CC[C@]1(n2ncc(-c3cc(-c4cc(CO)[nH]n4)cc4ncccc34)n2)C[C@H](C#N)C1 [Example 308]
Return: -0.14

Enquiry: Follow-up item: Cn1cc(-c2cc3ncccc3c(-c3ccn(C4(CC#N)CN(S(C)(=O)=O)C4)n3)n2)ccc1=O [Example 248]
Return: 0.00

Enquiry: Also, N#CC[C@]1(n2ncc(-c3cc(-c4cn[nH]c4N)cc4ncccc34)n2)C[C@@H](C#N)C1 [Example 320] please.
Return: -0.59

Enquiry: Entry N#CCC1(n2ccc(-c3nc(-c4cnn(C5COC5)c4)cc4ncccc34)n2)CN(CC(F)(F)F)C1 [Example 119] please
Return: -0.01

Enquiry: Subsequent entry: Cc1cc(-c2nc(-c3cc[nH]n3)cc3ncccc23)nn1[C@]1(CC#N)C[C@@H](C#N)C1 [Example 269]
Return: 0.14

Enquiry: Repeat for the following compound: Cc1cc(-c2cc3ncccc3c(-c3ccn(C4(CC#N)CN(CC(F)(F)F)C4)n3)n2)c[nH]c1=O [Example 250]
Return: 0.10

Enquiry: Follow-up entry: CS(=O)(=O)N1CC(CC#N)(n2ccc(-c3nc(-c4cnco4)cc4ncccc34)n2)C1 [Example 145]
Return: 0.52

###

The entries below are paired with their reported log10(IC50).
target: JAK2 (Homo sapiens (Human), UniProt O60674); assay: JAK Caliper Enzyme Assay at 1 mM ATP, JAK2; format: biochemical
Sequence (O60674 849-1124): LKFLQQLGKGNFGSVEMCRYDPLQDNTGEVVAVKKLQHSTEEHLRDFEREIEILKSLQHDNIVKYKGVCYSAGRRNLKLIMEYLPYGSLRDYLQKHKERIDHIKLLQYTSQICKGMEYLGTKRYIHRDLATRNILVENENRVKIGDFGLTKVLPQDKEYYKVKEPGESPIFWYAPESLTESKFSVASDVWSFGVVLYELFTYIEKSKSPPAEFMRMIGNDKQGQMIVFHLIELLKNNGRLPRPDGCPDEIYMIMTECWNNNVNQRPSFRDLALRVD
Please keep in mind that the values are log10 of IC50 expressed in nM.

N#CC[C@]1(n2ncc(-c3cc(-c4cn[nH]c4N)cc4ncccc34)n2)C[C@@H](C#N)C1 [Example 320] | 1.89

Enquiry: What value of log10(IC50) on JAK2 (Homo sapiens (Human), UniProt O60674) does N#CC[C@]1(n2ccc(-c3nc(-c4ccn[nH]4)cc4ncccc34)n2)C[C@H](C#N)C1 [Example 20] have?
Return: 2.38

Enquiry: Next entry: Cc1cncc(-c2cc3ncccc3c(-c3ccn(C4(CC#N)CN(CC(F)(F)F)C4)n3)n2)c1 [Example 173]
Return: 3.90

Enquiry: Another compound to look at: Cn1cc(-c2cc3ncccc3c(-c3ccn(C4(CC#N)CN(S(N)(=O)=O)C4)n3)n2)cn1 [Example 108]
Return: 1.70

Enquiry: Same again, this time with N#CCC1(n2ccc(-c3nc(-c4cnc5cc[nH]c5c4)cc4ncccc34)n2)CN(CC(F)(F)F)C1 [Example 158]
Return: 2.82

Enquiry: And the next one, N#CC[C@]1(n2ccc(-c3nc(-c4cccc(CO)n4)cc4ncccc34)n2)C[C@@H](C#N)C1 [Example 212] ?
Return: 2.95

Enquiry: Moving on to the next compound: N#CC[C@]1(n2ccc(-c3nc(-c4ccc(S(N)(=O)=O)nc4)cc4ncccc34)n2)C[C@H](C#N)C1 [Example 211]
Return: 1.59

###

biological target: JAK1 (Homo sapiens (Human)); experiment: JAK Caliper Enzyme Assay at 1 mM ATP, JAK1; format: biochemical
pIC50: −log10 of the molar value.
# label = 1 if pIC50 >= 7 else -1

N#CCC1CC(CC#N)(n2cc(-c3nc(-c4cn[nH]c4)cc4ncccc34)cn2)C1 (centres unmarked) [Example 3] | 1
Cn1ncc(-c2cc3ncccc3c(-c3ccn([C@]4(CC#N)C[C@H](C#N)C4)n3)n2)c1N [Example 142] | 1

Enquiry: Quick check, pIC50 >= 7? CS(=O)(=O)N1CC(CC#N)(n2ccc(-c3nc(-c4cnc5nccn5c4)cc4ncccc34)n2)C1 [Example 165]
Return: -1

Enquiry: Can you handle N#CC[C@]1(n2ncc(-c3cc(-c4ccc(N)nc4)cc4ncccc34)n2)C[C@@H](C#N)C1 [Example 366] next?
Return: -1

Enquiry: // next record CS(=O)(=O)N1CC(CC#N)(n2ccc(-c3nc(-c4ccn[nH]4)cc4ncccc34)n2)C1 [Example 17]
Return: -1

Enquiry: What about Cn1nccc1-c1cc(-c2cnn(C3(CC#N)CN(S(C)(=O)=O)C3)n2)c2cccnc2c1 [Example 310] ?
Return: -1

Enquiry: Please answer likewise for Cn1ncc(-c2cc(-c3cnn([C@]4(CC#N)C[C@@H](C#N)C4)n3)c3cccnc3c2)c1CO [Example 328]
Return: -1

###

target: JAK1 (Homo sapiens (Human)); assay: JAK Caliper Enzyme Assay at 1 mM ATP, JAK1; type: biochemical
pIC50: −log10 of the molar value.
Classify as follows. Reported pIC50 greater than or equal to 6: Criterion met. Reported pIC50 below: Criterion not met.

N#CCC1(n2ccc(-c3nc(-c4ccc(O)nc4)cc4ncccc34)n2)CN(C2CC(F)(F)C2)C1 [Example 185] | Criterion not met
Cc1cc(-c2nc(-c3cn[nH]c3)cc3ncccc23)nn1[C@]1(CC#N)C[C@H](C#N)C1 [Example 274] | Criterion met
N#CCC1(n2ccc(-c3nc(-c4cnn(C5CCCCO5)n4)cc4ncccc34)n2)CN(CC(F)(F)F)C1 (stereo not drawn) [Example 155] | Criterion not met
N#CC[C@]1(n2ccc(-c3nc(-c4c[nH]nc4N)cc4ncccc34)n2)C[C@@H](C#N)C1 [Example 97] | Criterion met
CS(=O)(=O)N1CC(CC#N)(n2ccc(-c3cc(-c4cn[nH]c4)cc4ncccc34)n2)C1 [Example 284] | Criterion not met
Cc1cc(-c2cc3ncccc3c(-c3ccn([C@]4(CC#N)C[C@@H](C#N)C4)n3)n2)n[nH]1 [Example 43] | Criterion met
Cn1nc(CO)cc1-c1cc2ncccc2c(-c2ccn([C@]3(CC#N)C[C@H](C#N)C3)n2)n1 [Example 61] | Criterion met
CS(=O)(=O)N1CC(CC#N)(n2ccc(-c3nc(-c4cnc(N)c(N)c4)cc4ncccc34)n2)C1 [Example 229] | Criterion not met
CS(=O)(=O)N1CC(CC#N)(n2ccc(-c3nc(-c4cncc(N)c4)cc4ncccc34)n2)C1 [Example 193] | Criterion not met
N#CC[C@]1(n2ncc(-c3cc(-c4cn[nH]c4)cc4ncccc34)n2)C[C@H](C#N)C1 [Example 315] | Criterion met

Here is the next item to consider.
Enquiry: Would you say Cn1cc(-c2cc(-c3ccn(C4(CC#N)CN(S(C)(=O)=O)C4)n3)c3cccnc3c2)cn1 [Example 286] shows pIC50 at minimum 6?
Return: Criterion not met

###

Biological target: JAK2 (Homo sapiens (Human), UniProt O60674)
Assay: JAK Caliper Enzyme Assay at 1 mM ATP, JAK2
Type: biochemical
Protocol: Compounds of the invention were evaluated by in vitro methods to determine their respective ability to inhibit the JAK kinases (TYK2, JAK1, JAK2, JAK3). The human JAK inhibitory activity was determined by using a microfluidic assay to monitor phosphorylation of a synthetic peptide by the recombinant human kinase domain of each of the four members of the JAK family, JAK1, JAK2, JAK3 and TYK2. […]
measured_property: log10(IC50) (log10 of the value in nM)
Heads up, the numbers here are log10 of IC50 in nM units.

C[C@]1(C#N)C[C@](CC#N)(n2ccc(-c3nc(-c4cn[nH]c4)cc4ncccc34)n2)C1 [Example 83] | 3.39
C[C@]1(C#N)C[C@@](CC#N)(n2ccc(-c3nc(-c4cn[nH]c4)cc4ncccc34)n2)C1 [Example 84] | 2.24
Cc1cc(-c2nc(-c3cn[nH]c3)cc3ncccc23)nn1[C@]1(CC#N)C[C@@H](C#N)C1 [Example 273] | 2.49
Cc1cc(-c2cc3ncccc3c(-c3ccn(C4(CC#N)CN(CC(F)(F)F)C4)n3)n2)ccn1 [Example 176] | 2.80
Cc1nc(-c2cc3ncccc3c(-c3ccn(C4(CC#N)CN(CC(F)(F)F)C4)n3)n2)c[nH]1 [Example 150] | 3.53
Cc1ccc(-c2cc3ncccc3c(-c3ccn(C4(CC#N)CN(CC(F)(F)F)C4)n3)n2)cn1 [Example 177] | 2.90

Enquiry: Record N#CCC1(n2ncc(-c3cc(-c4cc[nH]n4)cc4ncccc34)n2)CN(CC2(F)CC2)C1 [Example 297] : what is its log10(IC50) with JAK2 (Homo sapiens (Human), UniProt O60674)?
Return: 3.39
